molecular target: Bifunctional 3'-5' exonuclease/ATP-dependent helicase WRN (Homo sapiens, UniProt Q14191); assay: ADP-Glo Kinase Assay
Sequence (Q14191 whole entry): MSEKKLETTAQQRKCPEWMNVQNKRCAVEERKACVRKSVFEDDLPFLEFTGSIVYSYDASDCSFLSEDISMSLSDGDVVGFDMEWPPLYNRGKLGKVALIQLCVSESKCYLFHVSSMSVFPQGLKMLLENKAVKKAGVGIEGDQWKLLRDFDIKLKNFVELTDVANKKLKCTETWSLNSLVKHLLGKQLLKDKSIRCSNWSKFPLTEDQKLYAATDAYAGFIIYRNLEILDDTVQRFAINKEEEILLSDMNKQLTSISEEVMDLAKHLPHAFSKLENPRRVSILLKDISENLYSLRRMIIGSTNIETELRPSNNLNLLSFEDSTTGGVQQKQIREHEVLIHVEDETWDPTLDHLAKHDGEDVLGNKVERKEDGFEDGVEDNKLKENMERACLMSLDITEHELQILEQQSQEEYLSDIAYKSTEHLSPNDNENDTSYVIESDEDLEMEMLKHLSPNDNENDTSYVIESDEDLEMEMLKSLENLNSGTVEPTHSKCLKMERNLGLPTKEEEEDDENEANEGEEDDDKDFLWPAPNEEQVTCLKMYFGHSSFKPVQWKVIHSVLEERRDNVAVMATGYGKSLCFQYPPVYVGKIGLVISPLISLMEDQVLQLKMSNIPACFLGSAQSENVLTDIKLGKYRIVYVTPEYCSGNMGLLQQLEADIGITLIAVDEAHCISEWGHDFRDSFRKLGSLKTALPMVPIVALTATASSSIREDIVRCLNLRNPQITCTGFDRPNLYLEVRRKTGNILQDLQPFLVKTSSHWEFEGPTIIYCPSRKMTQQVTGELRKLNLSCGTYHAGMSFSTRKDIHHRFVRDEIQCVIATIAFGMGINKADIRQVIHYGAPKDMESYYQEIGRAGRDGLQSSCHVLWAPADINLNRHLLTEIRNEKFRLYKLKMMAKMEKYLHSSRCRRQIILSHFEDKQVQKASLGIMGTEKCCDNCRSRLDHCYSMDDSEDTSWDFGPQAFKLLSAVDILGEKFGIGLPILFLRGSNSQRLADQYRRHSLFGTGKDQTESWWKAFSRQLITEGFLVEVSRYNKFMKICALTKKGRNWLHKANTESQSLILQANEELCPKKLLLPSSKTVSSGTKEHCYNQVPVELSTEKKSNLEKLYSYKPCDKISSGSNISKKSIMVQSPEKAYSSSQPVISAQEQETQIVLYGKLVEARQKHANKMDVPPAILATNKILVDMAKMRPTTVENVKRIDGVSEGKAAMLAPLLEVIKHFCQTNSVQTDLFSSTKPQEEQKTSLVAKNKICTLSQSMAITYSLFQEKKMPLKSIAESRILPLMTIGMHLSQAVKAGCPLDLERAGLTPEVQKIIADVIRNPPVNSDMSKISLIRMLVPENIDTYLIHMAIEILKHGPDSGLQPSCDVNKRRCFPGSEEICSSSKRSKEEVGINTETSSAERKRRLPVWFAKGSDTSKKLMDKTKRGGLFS
pIC50: −log10 of the molar value.
outcome.measure: pIC50

Completed entries (count: 2):
{"compound": "CCc1c(N2CCN(C(=O)c3ncnc(C)c3O)CC2)c(=O)n2nc(-c3ccc4c(c3C)COC4(C)C)nc2n1CC(=O)Nc1ccc(C(F)(F)F)cc1Cl", "pIC50": 7.35}
{"compound": "CCc1c(N2CCN(C(=O)c3ncnc(C)c3O)CC2)c(=O)n2nc(N3CCC3)nc2n1CC(=O)Nc1ccc(C(F)(F)F)c2c1CC2", "pIC50": 7.35}

1: CCc1c(N2CCN(C(=O)c3ncnc(C)c3O)CC2)c(=O)n2nc(-c3cccc4nc(C)oc34)nc2n1CC(=O)Nc1ccc(C(F)(F)F)cc1Cl
2: CCc1c(N2CCN(C(=O)c3ncnc(C)c3O)CC2)c(=O)n2nc(-c3cnc4c(ccn4C)c3)nc2n1CC(=O)Nc1ccc(C(F)(F)F)cc1Cl
3: CCc1c(N2CCN(C(=O)c3ncnc(C)c3O)CC2)c(=O)n2nc(C3=CCOCC3)nc2n1CC(=O)NC12CC(c3ccc(F)cc3)(C1)C2
QUERY: Please put the entries in order of rising pIC50. Lab note: record answer as labels in requested order.
RESULT: 3, 1, 2
(3: 5.16, 1: 7.36, 2: 7.72)
